Values were extracted from PubChem BioAssay.

Task for the reader: assign each of the following compounds its reported fluorescence ratio.
Test: fluorescence interference in NS3h assay format, artefact control for HCV NS3 helicase inhibitor project, biochemical, NIH Clinical Collection (AID 743272);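 also: HCV NS3 helicase with a Cy5 labelled single stranded DNA probe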
Conditions: fluorescence interference counterscreen, hits give low values
Answer as a number with no unit attached.

Problem: Find the recorded fluorescence ratio belonging to CCC(C)(C)C(=O)O[C@H]1C[C@@H](C)C=C2C=C[C@H](C)[C@H](CC[C@@H]3C[C@@H](O)CC(=O)O3)[C@H]21 and report it.
Solution: 0.92

Problem: Now the compound CCCCCCNC(=O)n1cc(F)c(=O)[nH]c1=O
Solution: 0.97

Problem: Repeat with NNC(=O)c1ccncc1
Solution: 0.93

Problem: Follow-up entry: C#C[C@]1(O)CC[C@H]2[C@@H]3CCC4=CC(=O)CC[C@@H]4[C@H]3CC[C@@]21CC
Solution: 0.96

Problem: Try the compound CC[N+](C)(C)c1cccc(O)c1
Solution: 0.96

Problem: Same lookup for C[C@@H]1C[C@H]2[C@@H]3CCC4=CC(=O)C=C[C@]4(C)[C@@]3(F)[C@@H](O)C[C@]2(C)[C@@]1(O)C(=O)CO , please.
Solution: 1

Problem: Input COc1cc(NC(C)CCCN)c2ncccc2c1 (stereo unspecified)
Solution: 0.86

Problem: And the next one, CN(C)CCC=C1c2ccccc2CCc2ccccc21 ?
Solution: 0.92

Problem: COc1ccccc1N1CCN(CCCNc2cc(=O)n(C)c(=O)n2C)CC1 ?
Solution: 0.96

Problem: Next compound up: CC(C)Oc1ccc2c(=O)c(-c3ccccc3)coc2c1
Solution: 1.04

Problem: Next compound up: C[C@H](CCC(=O)O)[C@H]1CC[C@H]2[C@@H]3C(=O)C[C@@H]4CC(=O)CC[C@]4(C)[C@H]3CC(=O)[C@]12C
Solution: 0.9

* * *

Experiment: CellTiter-Glo luminescent readout of SW480 viability loss, NPC library primary (AID 1117343)
Details: CellTiter-Glo luminescence; at 20 µM (top of the series)
OBSERVABLE: viability decrease (inhibition) (%)
Your answer should be a plain number; it is taken to be in %.

Problem: What value of measured viability decrease (inhibition) is listed for Cc1cccc(C)c1OCC(=O)N[C@@H](Cc1ccccc1)[C@@H](O)C[C@H](Cc1ccccc1)NC(=O)[C@H](C(C)C)N1CCCNC1=O ?
Solution: 80.2

Problem: Moving on to the next compound: CCN1CCN(C(=O)N[C@@H](C(=O)N[C@@H]2C(=O)N3[C@@H]2SC(C)(C)[C@H]3C(=O)O)c2ccccc2)C(=O)C1=O
Solution: 8.3

Problem: Repeat for the following compound: CC(C)NCC(O)c1ccc(O)c(O)c1 (stereo not given)
Solution: 28.5

Problem: Entry to check: CCOC(=O)[C@H](CCc1ccccc1)N[C@@H](C)C(=O)N(CC(=O)O)C1Cc2ccccc2C1
Solution: -7.1

Problem: Another compound: Nc1nnnn1-c1ccccc1
Solution: 56.4

* * *

Experiment: decreased DLD-1 cellular survival, CellTiter-Glo luminescent readout, NPC compound collection, primary HTS (AID 1117346)
Details: DLD-1 viability, CellTiter-Glo luminescence; at 20 µM (top of the series)
The source made the active and inactive calls.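 Rule for the calls: active = compounds that lower survival of DLD-1 colon cancer cells in the luminescence readout, no cutoff given; inactive = the rest.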
Response enum: true (active), false (inactive)

Problem: Dear colleague, could you share the recorded outcome for Cc1cccc(N(C)C(=S)Oc2ccc3c(c2)C2CCC3C2)c1 (stereo unspecified) when you have a moment?
Solution: true

Problem: What about this molecule? c1ccc(-n2cnnn2)cc1
Solution: false

Problem: Another molecule: O=C(OCC(O)CO)c1ccccc1Nc1ccnc2c(C(F)(F)F)cccc12 (stereo unspecified)
Solution: false

Problem: Another molecule to check: CC(C)C1CCC(C(=O)N[C@H](Cc2ccccc2)C(=O)O)CC1 (stereo partly specified)
Solution: false

Problem: Could you do the same for Cc1onc(-c2ccccc2Cl)c1C(=O)Cl , please?
Solution: false

Problem: // repeat for CCCCCCCCCCCC[N+](C)(C)Cc1ccccc1 and report
Solution: true

Problem: Same question, O=C(OCc1ccccc1)c1ccc(O)cc1 this time
Solution: false

Problem: Subsequent entry: COc1ccc(S(=O)(=O)N2c3ccc(Cl)cc3[C@@](O)(c3ccccc3Cl)[C@H]2C(=O)N2CCC[C@@H]2C(N)=O)cc1OC
Solution: false

Problem: Next molecule up: CN1CCCC(n2nc(Cc3ccc(Cl)cc3)c3ccccc3c2=O)CC1 (stereo unspecified)
Solution: false

Problem: Request: CCO[C@@H]1O[C@H](C(COCc2ccccc2)OCc2ccccc2)[C@H](OCc2ccccc2)[C@H]1O (stereo partly specified)
Solution: true

Problem: Please do the same for O=C(c1ccccc1)C(O)c1ccccc1 (stereo unspecified) as well.
Solution: false

Problem: Then what about the molecule O=C(O)Cc1cn(-c2ccccc2)nc1-c1ccc(Cl)cc1 ?
Solution: false

Problem: Would you mind doing CCN(CC)CCNC(=O)c1ccc(N)cc1 as well?
Solution: false

Problem: And for Cc1c(F)cc2c(=O)c(C(=O)O)cn3c2c1CCC3C (stereo unspecified) ?
Solution: false

Problem: And what about the molecule CCCC(CCC)(C(=O)OCC)C(=O)OCC ?
Solution: false

Problem: Okay, and COc1ccccc1OCC(O)COC(N)=O (stereo unspecified) ?
Solution: false

Problem: Now give it for CCN(CC)S(=O)(=O)c1ccc(C(=O)O)cc1 too.
Solution: false

Problem: Repeat for the following molecule: NC(=O)NC1N=C([O][Al])NC1=O (stereo unspecified)
Solution: false

Problem: Likewise for CCCNC(C)C(=O)Nc1ccccc1C (stereo unspecified) ?
Solution: false

Problem: // next record CC(C)(C)NCC(O)COc1ccc(NC(=O)NC2CCCCC2)cc1 (stereo unspecified)
Solution: false

Problem: Note, next up: C[C@@H](O)[C@H]1C(=O)N2C(C(=O)O)=C([C@H]3CCCO3)S[C@H]12
Solution: false

Problem: Another molecule to look at: CC1(C)O[C@@H]2C[C@H]3[C@@H]4CCC5=CC(=O)C=C[C@]5(C)[C@@]4(F)[C@@H](O)C[C@]3(C)[C@]2(C(=O)CO)O1
Solution: false

Problem: Now give it for O=c1[nH]cc(F)c(=O)[nH]1 too.
Solution: false

Problem: Another molecule to look at: CC(=O)SCC(CC(=O)c1ccc(C)cc1)C(=O)O (stereo unspecified)
Solution: false

Problem: Likewise for CCCc1c2oc(C(=O)O)cc(=O)c2cc2c(=O)cc(C(=O)O)n(CC)c12 ?
Solution: false

Problem: Now the molecule O=C(O)CNC(=O)c1ccccc1I
Solution: false

Problem: Please answer likewise for Cc1[nH]cnc1-c1ccc(Cl)cc1
Solution: false

Problem: Then what about the molecule CCOC(=O)C(C#N)=C(c1ccccc1)c1ccccc1 ?
Solution: false

Problem: Follow-up entry: CCOc1ccccc1O[C@H](c1ccccc1)[C@H]1CNCCO1
Solution: false

Problem: Next entry: Cc1ccc(C(=O)Oc2ccc(C(O)CNC(C)(C)C)cc2OC(=O)c2ccc(C)cc2)cc1 (stereo unspecified)
Solution: true

Problem: Next record, please: CCCSc1ccc2nc(NC(=O)OC)[nH]c2c1
Solution: true

Problem: What do you get for CC1CCCCN1CCCOC(=O)c1ccc(OC2CCCCC2)cc1 (stereo unspecified) ?
Solution: true

Problem: Likewise for N[C@H](C(=O)O)[C@@H](O)c1ccc(O)c(O)c1 ?
Solution: false

Problem: Another: CC(=O)OCC[N+](C)(C)C
Solution: false

Problem: How about this molecule: Cc1cc(CCCOc2c(C)cc(-c3noc(C(F)(F)F)n3)cc2C)on1
Solution: true

Problem: Now consider OC[C@]1(O)OC[C@@H](O)[C@H](O)[C@@H]1O .
Solution: false

Problem: Cc1ncc([N+](=O)[O-])n1CC(C)O (stereo unspecified) ?
Solution: false

Problem: Then this molecule: O=C1C(c2[nH]c3ccccc3c2O)=Nc2ccccc21
Solution: false

Problem: Input CC(C=CC1=C(C)CCCC1(C)C)=CC=CC(C)=CC(=O)Oc1c(C)c(C)c2c(c1C)CC[C@@](C)(CCC[C@H](C)CCC[C@H](C)CCCC(C)C)O2
Solution: false

Problem: What about NC(=O)N1c2ccccc2CC(=O)c2ccccc21 ?
Solution: false

Problem: Now try CC(C)C[C@H](NC(=O)CNC(=O)[C@H](Cc1ccc(O)cc1)NC(=O)[C@H](CO)NC(=O)[C@H](Cc1c[nH]c2ccccc12)NC(=O)[C@H](Cc1cnc[nH]1)NC(=O)[C@@H]1CCC(=O)N1)C(=O)N[C@@H](CCCN=C(N)N)C(=O)N1CCC[C@H]1C(=O)NCC(N)=O (stereo in doubt) .
Solution: false

Problem: What do we get for Oc1ccc(CCNCCCCCCNCCc2ccccc2)cc1O ?
Solution: true

Problem: Now consider CCN1CCCC1=O .
Solution: false

Problem: One more molecule: O=C(CCCN1CC=C(n2c(=O)[nH]c3ccccc32)CC1)c1ccc(F)cc1
Solution: false

Problem: Now the same for [O-][n+]1ccccc1SSc1cccc[n+]1[O-]
Solution: false

Problem: And then CC1=C(CC(=O)O)c2cc(F)ccc2/C1=C\c1ccc(S(C)=O)cc1 (stereo unspecified) , what is it?
Solution: false
